- test.name: Uptake and apical-to-basolateral transport by Caco-2 TC7 cell monolayers of diluted aqueous fractions from in vitro digestions
- Format: in vitro ADME, human
- experimental.conditions: human, Caco-2, 6 h; read-out: Total recovery in the three compartments (apical, basolateral, cells)
readout.type: recovery at 6 h

              smiles_repr  measured_value
0  O=C(O)/C=C/c1ccc(O)cc1           ~100%

Could you now look at the following compound, please?
Query: Fill in the blank: the reported recovery at 6 h of "OCCc1ccc(O)cc1" is ____.
Reply: ~100%

---

The compounds listed here are annotated with their Basolateral amount as percentage of initial apical amount (Caco-2 transport).
- test.name: Uptake and apical-to-basolateral transport by Caco-2 TC7 cell monolayers of diluted aqueous fractions from in vitro digestions
- Format: in vitro ADME, human
- experimental.conditions: human, Caco-2; whether from alperujo or alperujo-CD; read-out: Bioavailability (basolateral amount compared with initial apical amount)
- Method: Caco-2 TC7 cells were grown in DMEM supplemented with 16% (v/v) fetal bovine serum, 1% (v/v) non-essential amino-acids, and 1% (v/v) antibiotics (complete medium), as previously described. […] The cytotoxicity on Caco-2 cells of the aqueous fractions from in vitro digestions was first assessed to determine the suitable dilution required before adding the aqueous fractions to the apical side of cell monolayers. […] Results were expressed as means ± standard deviations. […]

In [3]: df
Out[3]:
                        compound  measured_value
0  OCCc1ccc(O)cc1 [Tyr, tyrosol]           > 20%

Turning now to a further record.
Query: Can you share its Basolateral amount as percentage of initial apical amount (Caco-2 transport)? I mean this compound: O=C(O)/C=C/c1ccc(O)cc1 [p-Cm, p-coumaric acid]
Reply: > 40%
